Reported values of viability, T/C for individual entries
Tested on: 317291-083-R-J1-PDC complex spheroid growth
experiment: Anticancer human tumor 317291-083-R-J1-PDC patient-derived soft tissue sarcoma cell line growth inhibition [Asc]
experimentalContext: second compound 0.1 µM; first compound 0.00949 µM; stronger effect = lower value
Source text: Multicellular complex tumor spheroid response to apoptosis pathway targeting inhibitors Alrizomadlin, Pelcitoclax, and Dasminapant in combination with a variety of drugs and investigational agents in selected tumor cell lines […] Compounds. […] If the clinical Cmax for an agent had not been determined, the highest concentration tested was 10 microM. […]

compound: NC(=O)C(=Cn1cnc(-c2cc(C(F)(F)F)cc(C(F)(F)F)c2)n1)c1cncnc1 + CNC(C)C(=O)NC1CN(S(=O)(=O)c2cccc(S(=O)(=O)N3CCC4CCC(C(=O)NC(c5ccccc5)c5ccccc5)N4C(=O)C(NC(=O)C(C)NC)C3)c2)CCC2CCC(C(=O)NC(c3ccccc3)c3ccccc3)N2C1=O
viability, T/C [%]: 45.3
--
compound: NC(=O)C(=Cn1cnc(-c2cc(C(F)(F)F)cc(C(F)(F)F)c2)n1)c1cncnc1 + Cc1c(S(C)(=O)=O)c(-c2cc(F)cc(N3CCN(c4ccc(NS(=O)(=O)c5ccc(NC(CCN6CCC(C(=O)OCCCP(=O)(O)O)CC6)CSc6ccccc6)c(S(=O)(=O)C(F)(F)F)c5)cc4)CC3)c2)c(-c2ccc(Cl)cc2)n1C(C)C
viability, T/C [%]: 72.6
--
compound: CCN1C(C(=O)NC23CCC(C(=O)O)(CC2)CC3)C(c2cccc(Cl)c2F)C2(C(=O)Nc3cc(Cl)ccc32)C12CCCCC2 (stereo not drawn) + Cc1c(S(C)(=O)=O)c(-c2cc(F)cc(N3CCN(c4ccc(NS(=O)(=O)c5ccc(NC(CCN6CCC(C(=O)OCCCP(=O)(O)O)CC6)CSc6ccccc6)c(S(=O)(=O)C(F)(F)F)c5)cc4)CC3)c2)c(-c2ccc(Cl)cc2)n1C(C)C
viability, T/C [%]: 110

---

Reported values of viability, T/C for individual entries
System: 317291-083-R-J1-PDC complex spheroid growth
experiment: Anticancer human tumor 317291-083-R-J1-PDC cell line growth inhibition [Asc];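 also: compound exposure lasted seven days after spheroids formed for three days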;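 as to viability, T/C: 100% = DMSO vehicle control wells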
experimentalContext: second compound 1 µM; first compound 0.00316 µM; stronger effect = lower value
measurementType: viability, T/C (%)

molecule: COc1c(OCCCN2CCOCC2)ccc2c3n(c(=NC(=O)c4cnc(N)nc4)nc12)CCN3 + CNC(C)C(=O)NC1CN(S(=O)(=O)c2cccc(S(=O)(=O)N3CCC4CCC(C(=O)NC(c5ccccc5)c5ccccc5)N4C(=O)C(NC(=O)C(C)NC)C3)c2)CCC2CCC(C(=O)NC(c3ccccc3)c3ccccc3)N2C1=O
unitOfMeasure: %
reportedResult: 33.2
//
molecule: Cn1ncnc1[C@H]1c2n[nH]c(=O)c3cc(F)cc(c23)N[C@@H]1c1ccc(F)cc1 + CNC(C)C(=O)NC1CN(S(=O)(=O)c2cccc(S(=O)(=O)N3CCC4CCC(C(=O)NC(c5ccccc5)c5ccccc5)N4C(=O)C(NC(=O)C(C)NC)C3)c2)CCC2CCC(C(=O)NC(c3ccccc3)c3ccccc3)N2C1=O
unitOfMeasure: %
reportedResult: 28.1

---

System: 317291-083-R-J1-PDC complex spheroid growth
experiment: Anticancer human tumor 317291-083-R-J1-PDC cell line growth inhibition [Asc];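 also: compound exposure lasted seven days after spheroids formed for three days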
experimentalContext: curve of first compound; second compound 0.0949 µM
Text: Multicellular complex tumor spheroid response to apoptosis pathway targeting inhibitors Alrizomadlin, Pelcitoclax, and Dasminapant in combination with a variety of drugs and investigational agents in selected tumor cell lines […] Compounds. […] If the clinical Cmax for an agent had not been determined, the highest concentration tested was 10 microM. […]
Reported values of IC50 for individual entries

compound: Cn1ncnc1[C@H]1c2n[nH]c(=O)c3cc(F)cc(c23)N[C@@H]1c1ccc(F)cc1 + CCN1C(C(=O)NC23CCC(C(=O)O)(CC2)CC3)C(c2cccc(Cl)c2F)C2(C(=O)Nc3cc(Cl)ccc32)C12CCCCC2
IC50: > 100 nM

compound: C=CC(=O)N1CCN(c2nc(=O)n(-c3c(C)ccnc3C(C)C)c3nc(-c4c(O)cccc4F)c(F)cc23)C(C)C1 (stereo not drawn) + CCN1C(C(=O)NC23CCC(C(=O)O)(CC2)CC3)C(c2cccc(Cl)c2F)C2(C(=O)Nc3cc(Cl)ccc32)C12CCCCC2
IC50: > 10000 nM

compound: NC1CCC(NC2CC2c2ccccc2)CC1 (stereo not drawn) + CCN1C(C(=O)NC23CCC(C(=O)O)(CC2)CC3)C(c2cccc(Cl)c2F)C2(C(=O)Nc3cc(Cl)ccc32)C12CCCCC2
IC50: > 100 nM
